System: SW-620 colon
experiment-description: NCI tumour cell line growth inhibition, 48 h; in the data active means GI50 below about 0.43 µM; inactive means the rest
Pick one: Y = active, N = inactive

Completed entries (count: 2):
COc1ccc(C2=CC(c3ccc(OC)cc3Br)N3C=CSC3=N2)cc1 (centres undefined) : N
COc1cc(/C=C/C(=O)c2ccc(F)cc2)ccc1OCCCN1CCN(CC(=O)Nc2ccc(Cl)cc2C(=O)c2ccccc2Cl)CC1 : N

Request: # fetch the recorded call for Nc1ncnc2c1c(-c1ccc(Oc3ccccc3)cc1)nn2C[C@@H]1SSC[C@H]1O here
Result: N

Request: # fetch the recorded call for Cn1cc(-c2csc(-c3cn(CCCN4CCCCC4)c4ccccc34)n2)c2cccnc21 here
Result: N

Request: # fetch the recorded call for O=c1c(O)c(-c2ccc(O)c(O)c2)oc2cc(O)cc(O)c12 here
Result: N

Request: # fetch the recorded call for Cc1ccc(-c2csc(NC(=O)N3CCN(c4cc5c(cc4F)c(=O)c(C(=O)O)cn5C4CC4)CC3)n2)cc1 here
Result: N

Request: # fetch the recorded call for COC(=O)C1=C(C)NC(C)=C(C(=O)OCC(C)C)C1c1ccccc1[N+](=O)[O-] (centres undefined) here
Result: N

Request: # fetch the recorded call for Cc1cnc(CNC(=O)c2c(=O)c3ccc(N4CCCN(C)CC4)nc3n3c2sc2ccccc23)cn1 here
Result: Y

Request: # fetch the recorded call for O=C1NOC(c2ccc(O)cc2)(c2ccc(O)cc2)c2ccccc21 here
Result: N

Request: # fetch the recorded call for Cc1nn(C)c(COc2ccc(N3CCN(S(=O)(=O)N(C)C)CC3)cc2)c1-c1cccc2c(CCCOc3cccc4ccccc34)c(C(=O)O)n(CCN3CCOCC3)c12 here
Result: N

###

Test system: RXF 393 renal
experiment-description: NCI tumour cell line growth inhibition, 48 h
recorded-endpoint: GI50

Known GI50 results, listed for orientation:
COc1ccccc1CNCCCN1C(=O)c2ccc3c4c(ccc(c24)C1=O)C(=O)N(CCCN)C3=O : 0.628 µM
C=C1c2ccoc2C[C@H]2[C@H]1CC[C@@]1(O)[C@@](C)(C(=O)OC)CCC[C@]21C : 48 µM
COc1cccc(-c2cc3c4c(nc5ccccc53)C(=O)c3cccnc3-c4n2)c1 : 2.47 µM
COc1ccc(C2=C(c3ccc(OC)c(OC)c3)C(=O)N3CCCC3C2)cc1 (stereo not given) : 11.5 µM
COc1cc(/C=C/C(=O)c2ccc(F)cc2)ccc1OCCCN1CCN(CC(=O)Nc2ccc(Cl)cc2C(=O)c2ccccc2Cl)CC1 : 2.84 µM
O=C1NOC(c2ccc(O)cc2)(c2ccc(O)cc2)c2ccccc21 : > 100 µM

Here Cc1ccc(C(=O)NC2CCC2)cc1-c1ccc(C(=O)NCC2CC2)cc1 was tested on RXF 393 renal, and its GI50 came to > 25 µM

Here O1[As]2O[As]3O[As]1O[As](O2)O3 was tested on RXF 393 renal, and its GI50 came to 0.502 µM

Here O=[N+]([O-])c1ccc(N=Nc2ccc(O)c3ccccc23)cc1 was tested on RXF 393 renal, and its GI50 came to 4.87 µM

Here CCOC(=O)C1CCCCN1C(=O)c1ccc(Nc2cnc3cc(C(F)(F)F)ccc3n2)cc1 (stereo not given) was tested on RXF 393 renal, and its GI50 came to 3.23 µM

###

System: K-562 leukemia
experiment-description: NCI tumour cell line growth inhibition, 48 h
Measured TGI, listed per entry for reference.

Known TGI results, listed for orientation:
O=C(O)c1nc(-c2ccc(Cl)c(Cl)c2)nc2ccc(Cl)cc12 : > 10 µM
CC(C)N(C(C)C)S(=O)(=O)C[C@]12CC[C@H](CC13OCC(CS(=O)(=O)c1ccccc1)O3)C2(C)C (stereo not given in full) : > 100 µM
Cc1[nH]c(=O)nc(Nc2ccc(Cl)cc2)c1C(=O)N1CCN(CCO)CC1 : > 100 µM
C[C@@H]1CC[C@@]2(OC1)O[C@H]1C[C@H]3[C@@H]4CC[C@H]5C[C@@H](OC6OC(CO)C(OC7OC(CO)C(O)C(OC8OCC(O)C(O)C8O)C7OC7OC(CO)C(O)C(O)C7O)C(O)C6O)[C@H](O)C[C@]5(C)[C@H]4CC[C@]3(C)[C@H]1[C@@H]2C (stereo not given in full) : > 100 µM

Here COc1ccc(C2=CC(c3ccc(OC)cc3Br)N3C=CSC3=N2)cc1 (stereo not given) was tested on K-562 leukemia, and its TGI came to 8.26 µM

Here CC(C)(c1ccccc1)c1ccc(Oc2ccc(C#N)c(C#N)c2)cc1 was tested on K-562 leukemia, and its TGI came to > 100 µM

Here CN1CC2CN(Cc3ccccc3)CCN2c2cccnc21 (stereo not given) was tested on K-562 leukemia, and its TGI came to > 100 µM

Here COc1cc(C2c3cc4c(cc3[C@@H](NCCN3CCOCC3)C3COC(=O)[C@H]23)OCO4)cc(OC)c1O (stereo not given in full) was tested on K-562 leukemia, and its TGI came to > 75 µM

Here O=C(CC(Cl)=C(Cl)Cl)c1ccccc1 was tested on K-562 leukemia, and its TGI came to 50 µM

Here Nc1c(C(=O)c2cccc(C#CCO)c2)cnn1-c1ccc(F)cc1 was tested on K-562 leukemia, and its TGI came to > 25 µM
